Listed below: growth values for each entry.
# System: U251 CNS
# experiment: NCI-60 one-dose screen, 48 h (100 = growth as untreated, 0 = no growth, -100 = all killed)
# experimental_conditions: 10 µM unless noted
About 83,000 compounds went through this panel and 20% of them were active in at least one assay; those are over-represented in the sample as a whole.
measured_parameter: growth (%)

>>> measured_number("C=CCn1c(SCC(=O)Nc2ccc(C(=O)/C=C/c3ccc(Cl)cc3)cc2)nnc1-c1ccc(Cl)c(Cl)c1")
81
>>> measured_number("Clc1ccc(C2=Nn3c(nnc3-c3cc(Cl)cc(Cl)c3Cl)SC2)cc1")
20.9
>>> measured_number("CC(C)(C)n1cc(-c2ccnc(NCCNS(=O)(=O)c3ccc(Br)cc3)c2)c(-c2cccc(O)c2)n1")
21.7
>>> measured_number("CC(C)(C)n1cc(-c2ccnc(NCCNS(=O)(=O)c3ccc(C(F)(F)F)cc3)c2)c(-c2ccccc2)n1")
75.4
